# Tested on: MALME-3M melanoma
# experimentDescription: NCI tumour cell line growth inhibition, 48 h
Where a SMILES comes first, the peptide text is derived from it. [ ]: non-standard residue; d: D form. The star is where a group is joined. Cbz = O=C(OCc1ccccc1)*; Aib = CC(C)(N)C(=O)O; OBn = c1ccc(CO*)cc1
quantityMeasured: TGI

molecule | result
CC(C)(C)c1ccc2c(c1)C#Cc1cc3c(cc1OCCCO2)C#Cc1cc(C(C)(C)C)ccc1OCCCO3 | > 100 µM
CN(C)CCN1CCC(Cc2ccccc2)CC1 | > 80 µM
Cc1nc2sccn2c1-c1nc2sccn2c1/C=C1/C(=O)Nc2ccccc21 | 70.5 µM
Nc1nc(Cl)nc2c1ncn2C1CC(O)C(CO)O1 (centres undefined) | > 100 µM
Cn1ncc2c(NCc3ccccc3)ncnc21 | > 100 µM
c1ccc(C2=NOC(c3ccccc3)N2C23CC4CC(CC(C4)C2)C3)cc1 (centres undefined) | > 10 µM
CSC[C@H](NC(=O)COc1cccc2cnccc12)C(=O)NC(Cc1ccccc1)C(O)C(=O)N1CSC[C@H]1C(=O)NC(C)(C)C (some centres undefined) | > 100 µM
CC(NC(=O)C(C)(C)NC(=O)C(CC(=O)OCc1ccccc1)NC(=O)OCc1ccccc1)C(N)=O (centres undefined) (Cbz-Asp(OBn)-[Aib]-Ala-NH2; configuration not given here) | > 100 µM
CCOC(=O)Cc1csc(Nc2ccccc2[N+](=O)[O-])n1 | > 100 µM

* * *

# System: MALME-3M melanoma
# experimentDescription: NCI tumour cell line growth inhibition, 48 h

molecule | testedOn | GI50
CCCCCCn1c(-c2ccc(C(=O)O/N=C(\N)c3ccc4c(c3)OCO4)cc2)nc(-c2ccccc2)c1-c1ccccc1 | MALME-3M melanoma | 1.83 µM
COc1nc(=O)n(C2C=CC(=O)O2)cc1F (stereo unspecified) | MALME-3M melanoma | 1.8 µM
CCN(Cc1c(F)cccc1OC)c1ccc(CO)c(Cl)c1 | MALME-3M melanoma | 14 µM
COc1ccc(CNc2c3ccccc3nc3ccccc23)cc1F | MALME-3M melanoma | 2.71 µM
C=C(C)C(C1C=C(CCC(C=O)=C(C)C)C(=O)O1)C1(OC)C=C(C)C(=O)O1 (stereo unspecified) | MALME-3M melanoma | > 100 µM
CNCCCNc1ccnc2cc(Cl)ccc12 | MALME-3M melanoma | 19.7 µM

* * *

# Tested on: HCC-2998 colon
# experimentDescription: NCI tumour cell line growth inhibition, 48 h; in the data active = GI50 below about 0.43 µM; inactive = the rest
Classes used: yes (1) (active), no (0) (inactive)

compound | cat
COc1cccc2c1O/C(=C\c1ccc([N+](=O)[O-])s1)C2=O | no (0)
CCOC(=O)c1c(C)c2c(n1Cc1ccccc1)CSCC2=O | no (0)
C=C(C)C(C1C=C(CCC(C=O)=C(C)C)C(=O)O1)C1(OC)C=C(C)C(=O)O1 (stereo not drawn) | no (0)
COC(=O)c1c2c(c(C)[n+]([O-])c1C)C(=O)C(NCc1ccc(Br)cc1)=CC2=O | no (0)
COc1nc(=O)n(C2C=CC(=O)O2)cc1F (stereo not drawn) | no (0)
CC[C@]1(O)C[C@H]2CN(CCc3c([nH]c4ccccc34)C(C(=O)OC)(c3cc4c(cc3OC)N(C)[C@H]3[C@@](O)(C(=O)OC)[C@H](OC(C)=O)[C@]5(CC)[C@@H]6C[C@@H]6CN6CC[C@]43[C@@H]65)C2)C1 (stereo partly drawn) | yes (1)
COc1cc2c(cc1OCCCN1CCN(CCCOc3cc4c(cc3OC)C(=O)N3CC(F)(F)C[C@H]3C=N4)CC1)N=C[C@@H]1CC(F)(F)CN1C2=O | no (0)
NCCCn1c2c(c3ccc([N+](=O)[O-])cc3c1=O)C(=O)c1cc(I)ccc1-2 | yes (1)

Reference source for all entries: PubChem BioAssay (NCI)
